These data points were gathered from patent US10626094B2.

biological target: VHR-1 (VH1-related phosphatase, VHR) (Homo sapiens (Human))
Sequence (P51452 whole entry): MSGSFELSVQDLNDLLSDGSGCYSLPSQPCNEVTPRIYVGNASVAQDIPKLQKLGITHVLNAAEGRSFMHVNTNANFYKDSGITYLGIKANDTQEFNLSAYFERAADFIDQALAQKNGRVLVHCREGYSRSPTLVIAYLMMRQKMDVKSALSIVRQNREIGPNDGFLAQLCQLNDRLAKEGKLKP
pIC50: −log10 of the molar value.
measured_quantity: pIC50

GET /value?item= COc1ccc(-c2cc(NCCCN3CCCCC3)c3ccccc3n2)cc1 [Compound D1] &field=pIC50 returns < 4.10

---

molecular target: UniProtKB P24666; assay: LMPTP primary screening / LMPTP (OMFP) enzyme inhibition assay, fluorescence intensity; assay type: biochemical; conditions: LMPTP-A, OMFP substrate, method of Example 2; read-out: IC50
Sequence (P24666 whole entry): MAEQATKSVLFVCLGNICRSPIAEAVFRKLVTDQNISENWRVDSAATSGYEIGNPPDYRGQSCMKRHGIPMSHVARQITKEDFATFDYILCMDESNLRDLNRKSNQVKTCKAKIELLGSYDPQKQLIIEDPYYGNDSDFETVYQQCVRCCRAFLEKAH
measured_quantity: IC50

Documented IC50 of C[Si](C)(C)c1cccc(-c2cc(NCCCN3CCCCC3)c3ccccc3n2)c1 : 0.801 to 5 µM

Value of measured IC50 for the entry Clc1cccc(-c2cc(Nc3cccc(CC4CCN(Cc5ccccc5)CC4)c3)c3ccccc3n2)c1 : 0.801 to 5 µM

The compound CCNC(=O)c1ccc(-c2cc(NCCCN3CCCCC3)c3ccccc3n2)cc1 showed IC50 equal to 0.801 to 5 µM

For this compound ( COc1ccc(CNc2cc(-c3ccc(OC)cc3)nc3ccccc23)cc1 ), measured IC50 is 0.801 to 5 µM

For COc1ccc(-c2cc(Nc3ncccn3)c3ccccc3n2)cc1 the compound record lists IC50 as 0.801 to 5 µM

Data point: C[N+]1(C)CCC(Cc2cccc(Nc3cc(-c4cc(C(F)(F)F)cc(C(F)(F)F)c4)nc4ccccc34)c2)CC1 ; IC50 = > 5 µM

Record Fc1ccccc1-c1cc(NCCCN2CCCCC2)c2ccccc2n1 . Reported IC50: 0.801 to 5 µM

The recorded IC50 for entry Nc1cc(C(=O)N2CCOCC2)cc(-c2cc(NCCCN3CCCCC3)c3ccccc3n2)c1 equals 0.801 to 5 µM

Record summary for Cc1noc(C)c1-c1cc(NCCCN2CCCCC2)c2ccccc2n1 : reported IC50 = > 5 µM

Recorded IC50 (compound C1=C(c2cc(NCCCN3CCCCC3)c3ccccc3n2)OCC1 ): > 5 µM

IC50 reported for this compound Fc1c(Cl)cccc1-c1cc(NCCCN2CCCCC2)c2ccccc2n1 : 0.801 to 5 µM

The compound identified as CN(C)Cc1ccc(Nc2cc(-c3ccc(C(F)(F)F)cc3C(F)(F)F)nc3ccccc23)cc1 registered its IC50 at > 5 µM

Reported IC50 ( COc1ccc(-c2cc(NCCCN3CCCCC3)c3cc(C)ccc3n2)cc1 ) = > 5 µM

Entry c1ccc2c(NCCCN3CCCCC3)cc(-c3ccoc3)nc2c1 — recorded IC50 = 0.801 to 5 µM

Record O=C(Nc1ccc(-c2cc(NCCCN3CCCCC3)c3ccccc3n2)cc1)c1ccccc1 . Reported IC50: 0.2 to 0.8 µM

According to the records, this compound FC(F)(F)c1ccc(-c2cc(Nc3ccccc3CC3CCNCC3)c3ccccc3n2)c(C(F)(F)F)c1 displays IC50 of > 5 µM

IC50 measured on Fc1cc(Cl)ccc1-c1cc(Nc2ccc(CN3CCCCC3)cc2)c2ccccc2n1 = 0.801 to 5 µM

For record Fc1cc(F)cc(-c2cc(NCCCN3CCCCC3)c3ccccc3n2)c1 the listed IC50 is 0.801 to 5 µM

The compound listed as COc1ccc(-c2cc(NCCCN3CCCCC3)c3cc(F)ccc3n2)cc1 has a reported IC50 of 0.801 to 5 µM

The measured IC50 associated with Cc1nc(C)c(-c2cc(N(C)C)c3ccccc3n2)s1 reads > 5 µM

Input O=C(O)CNC(=O)c1ccc(-c2cc(NCCCN3CCCCC3)c3ccccc3n2)cc1 . Output IC50: 0.801 to 5 µM

Entry COc1ccc(CCNc2cc(-c3ccc(OC)cc3)nc3ccccc23)cc1 ; IC50 = 0.801 to 5 µM

Memo: NC(=O)c1ccc(-c2cc(NCCCN3CCCCCC3)c3ccccc3n2)cc1 , reported IC50: > 5 µM

Lab book: IC50 of Fc1cc(Cl)ccc1-c1cc(Nc2cccc(CC3CCNCC3)c2)c2ccccc2n1 noted as 0.801 to 5 µM

Record CCN(CC)C(=O)c1ccc(-c2cc(NCCCN3CCCCC3)c3ccccc3n2)cc1 , field IC50: 0.2 to 0.8 µM

Entry under test: NC(=O)c1ccc(-c2cc(Nc3ccc(CCN4CCNCC4)cc3)c3ccccc3n2)cc1 . Its IC50 was > 5 µM

Looking up CN(C)Cc1cc(CO)cc(Nc2cc(-c3cccc(Cl)c3)nc3ccccc23)c1 [Compound I45] , I found its IC50 recorded as 0.801 to 5 µM

For record NCCCNC(=O)c1ccc(-c2cc(NCCCN3CCCCC3)c3ccccc3n2)cc1 the listed IC50 is 0.2 to 0.8 µM

Just so you know, measured IC50 for FC(F)(F)Oc1ccc(-c2cc(NCCCN3CCCCC3)c3ccccc3n2)cc1 came out at 0.801 to 5 µM

// Clc1cccc(-c2cc(Nc3cccc(CN4CCCC4)c3)c3ccccc3n2)c1 : IC50 value = 0.801 to 5 µM

According to the records, this compound Cc1cc(Cl)ccc1-c1cc(NCCCN2CCCCC2)c2ccccc2n1 displays IC50 of 0.801 to 5 µM

response.value for COc1ccc(-c2cc(Nc3cccc(CN4CCSCC4)c3)c3ccccc3n2)cc1 (field: IC50) = 0.2 to 0.8 µM

For COc1ccc(-c2cc(Nc3ccc(F)c(Cl)c3)c3ccccc3n2)cc1 the compound record lists IC50 as 0.801 to 5 µM

The recorded IC50 for entry CN(C)c1cc(-c2ccco2)nc2ccccc12 equals > 5 µM

The compound listed as O=C(c1ccc(-c2cc(NCCCN3CCCCC3)c3ccccc3n2)cc1)N1CCCC1 shows IC50 equal to 0.801 to 5 µM
